- test.name: in vivo
- experimental.parameters: female, BALB/C, mouse, in vivo
result.type: MTD

Please give the measured MTD for this compound: CC(=O)Nc1ccc(C(=O)Nc2ccccc2N)cc1 [CI-994] 60 mg/kg/day

====

- test.name: in vivo
- experimental.parameters: female, BALB/C, mouse, po
result.type: MTD at 15 days (mg/kg)
Expressed in mg/kg, but write only the number.

# query: MTD at 15 days of entry `CC(=O)Nc1ccc(C(=O)Nc2ccccc2N)cc1` 60
